Tested on: HS 578T breast
Assay: NCI tumour cell line growth inhibition, 48 h
experimental-endpoint: TGI

Please review the entries below; each comes with its answer.
CC1(C)C2CCC13C(=O)C1OC3(C2)C2C(=O)c3cc4ccccc4cc3C(=O)C12 (stereo unspecified) ... > 100 µM
CC12O[C@]3([C@H](C(=O)N4CCOC43C)[C@H]1Cl)[C@H]1O[C@H]12 (stereo partly specified) ... > 100 µM
Cc1cc(-c2cccc3ccccc23)c(C#N)c(=S)n1C1OC(CO)C(O)C(O)C1O (stereo unspecified) ... > 100 µM

Consider the compound O=C1C(N2CCN(c3ccccn3)CC2)=C(Cl)C(=O)c2ncccc21 . State its measured TGI.
> 10 µM

Tell me TGI reported for CC1(C)C2C=C(CCN3CCOCC3)CC1C2 (stereo unspecified)
> 100 µM

Supply TGI value. Item: COc1ccc(/C=C2\NC(=S)N(/C=C3\C(=O)Oc4ccccc4C3=O)C2=O)cc1OC
> 100 µM

---

System: OVCAR-8 ovarian
Assay: NCI tumour cell line growth inhibition, 48 h
experimental-endpoint: GI50

Worked set:
O=C1C(Cl)=C(Nc2cccc(Cl)c2)C(=O)N1Cc1ccc(Cl)cc1 ... 0.833 µM
N.N.N.N.N.NC(=O)c1nn[n-]n1.[Cl-].[Co+3] ... > 100 µM
C=C(C)C(O)CCC1(C)C=Cc2c(c(C)cc3c2[nH]c2ccccc23)O1 (stereo not given) ... 10.7 µM
N.N.N.N.[Co+3].[N-]=[N+]=[N-].[N-]=[N+]=[N-].[N-]=[N+]=[N-] ... > 100 µM

Indicate its recorded GI50; the molecule in question is CCN1C(=O)N(CC)C2C1NN=c1s/c(=C\c3cccc(F)c3)c(=O)n12 (stereo not given)
0.345 µM

---

System: NCI-H460 lung
Use one of these outcomes when replying: class 1 = active, class 0 = inactive

COc1ccc2[nH]cc(-c3ccc(-c4c[nH]c5ccc(OC)cc45)s3)c2c1 ... class 0
N.N.N.N.[Co+3].[N-]=[N+]=[N-].[N-]=[N+]=[N-].[N-]=[N+]=[N-] ... class 0
COc1ccc(-c2nn(-c3cccc(Cl)c3)cc2-c2cc(-c3cccs3)[nH]c(=S)n2)cc1 ... class 0
CCCCCCCCNc1cc2c3c(c1)CCCN3CCC2 ... class 0
C[C@H](NC(=O)[C@@H](C)N)[C@H](Oc1ccc2c(cnn2-c2ccc(F)cc2)c1)c1ccc2c(c1)OCCO2 ... class 0

// outcome(item) with item = N=C1C(c2nc3ccccc3s2)=C(O)CN1c1ccc(F)c(Cl)c1
class 0

Dear colleague, could you share the recorded outcome for N#Cc1ccc(OCc2nc(N)nc(N)c2-c2ccc(Cl)c(Cl)c2)cc1 when you have a moment?
class 1

Dear all, I need the recorded test outcome for CC1(C)C2CCC13C(=O)C1OC3(C2)C2C(=O)c3cc4ccccc4cc3C(=O)C12 (centres undefined) , thank you.
class 0

What is the recorded call for this compound in the test? COc1ccc(/C=C/C(=O)c2cc(OC)c(OC)c(OC)c2)cc1OCc1cn(Cc2ccc(F)cc2)nn1
class 0

---

Entries and their measured TGI follow.
System: SR leukemia
Test: NCI tumour cell line growth inhibition, 48 h

Below, 2 compounds whose answers are already recorded.
N#CC(C#N)=C1c2ccccc2C(=NN)c2ccccc21 ... > 100 µM
C/C(N=NS(=O)(=O)c1ccccc1)=C1\C=CC=CN1O ... > 100 µM

# return TGI of O=C(Nc1ccc([As](=O)(O)O)cc1)Nc1cccc(Cl)c1Cl (system: SR leukemia)
> 100 µM

Provide TGI, tested on SR leukemia, for O=C(O)C1=C(O)C(C(=O)O)C23CCCCCCCCCCC12C(C(=O)O)C(O)=C3C(=O)O (configuration not stated) .
> 100 µM

State the measured TGI (SR leukemia) of CN1CN(c2ccccc2)C2(CCN(Cc3csc4ccccc34)CC2)C1=O
23.2 µM

---

System: UO-31 renal
Test: NCI tumour cell line growth inhibition, 48 h
experimental-endpoint: TGI

Recorded results for 6 compounds are shown here.
CC(Cc1ccccc1)Nc1ncnc2c1ncn2C1OC(CO)CC1O (centres undefined) ... > 100 µM
CN1C2=C(CC3=C1CC(C)(C)CC3=O)C(=O)CC(C)(C)C2 ... > 100 µM
COc1cc(C(O)CCBr)c(OC)cc1C (centres undefined) ... > 100 µM
O=C(NCCCCNc1cccccc1=O)OCc1ccccc1 ... > 100 µM
O=C(O)c1n[nH][nH]c1=S ... > 100 µM
NCCCOc1ccc([N+](=O)[O-])cc1Cl ... > 100 µM

Give a short answer stating reported TGI for CCOC(=O)Nc1ccc2c(c1)/C(=N\NC(N)=S)c1ccccc1-2 .
14.2 µM

Provide measured TGI value, entry: C=C1C(=O)O[C@@H]2C[C@@H](C)[C@@H]3C=CC(=O)[C@@]3(C)[C@@H](O)[C@H]12
3.65 µM

Respond only with TGI recorded for CC[C@@]1(O)C(=O)OCc2c1cc1n(c2=O)Cc2c-1nc1ccccc1c2/C=N\NC(=O)C(N)CO (some centres undefined)
11 µM

---

System: UACC-62 melanoma
Test: NCI tumour cell line growth inhibition, 48 h
Entries annotated with measured TGI

Examples from the recorded data:
COc1cc(Br)c(C=Nc2cccc3cc(OC)c(OC)cc23)cc1OC ... > 100 µM
COc1ccc(/C=C2\CCC(CNc3ccc(S(N)(=O)=O)cc3)C2=O)cc1 (stereo not drawn) ... 50.6 µM
COc1ccc(CCCCl)c(C2=NCCc3cc(OC)c(OC)cc32)c1 ... > 100 µM
O=c1c2ccccc2nc(-c2cc3c(cc2Cl)Sc2nccn2S3(=O)=O)n1-c1ccccc1 ... 71.7 µM
COc1ccc(/C=C2\NC(=S)N(/C=C3\C(=O)Oc4ccccc4C3=O)C2=O)cc1OC ... > 100 µM
Cc1c(C)c(C)c(-n2c(=O)n(C)c(=O)n2-n2c(=O)n(C)c(=O)n2-c2c(C)c(C)c(C)c(C)c2C)c(C)c1C ... > 100 µM

// fetch TGI; item: CN1CCC2(CC1)ONC1=NCCN12 ; system: UACC-62 melanoma
> 100 µM

Retrieve TGI on UACC-62 melanoma; query c1coc(CNc2ncnc3[nH]ncc23)c1
> 100 µM

---

Tested on: NCI-H226 lung
Assay: NCI tumour cell line growth inhibition, 48 h
experimental-endpoint: TGI

Solved cases below.
Cc1ccc2c(c1)C(=O)N(N(C)C)CC(=O)N2 ... > 100 µM
CC(=O)N1C(OC(C)C)CC(C)N1c1ccccc1 (stereo not drawn) ... > 10 µM

# ---- query molecule ----
Please give measured TGI of the following entry: COc1ccc(/C=C2\CCC(CNc3ccc(S(N)(=O)=O)cc3)C2=O)cc1 (stereo not drawn)
> 100 µM

---

Tested on: U251 CNS
Respond with a class label; see YES (active), NO (inactive)

The examples below pair each entry with its known result.
Oc1c(-c2nnc(-c3ccccc3Cl)o2)sc2nnc(-c3ccccc3)c(-c3ccccc3)c12 ... NO
COC12C=C/C(=C(/C(=O)OCc3cncnc3)C(=O)CCCCCCCCC3(OC)C=C/C(=C(/C(=O)OCc4cncnc4)C(=O)CCCCCCCC1)O3)O2 ... YES
CCN(Cc1ccc(Cl)cc1)c1ccc(CO)c(Cl)c1 ... NO
O=C(CCCCCCNC(=O)c1cnc(N(c2ccccc2)c2ccccc2)nc1)NO ... NO
N.N.N.N.N.NC(=O)c1nn[n-]n1.[Cl-].[Co+3] ... NO

Could you check what this test reported for C=C1C(=O)O[C@H]2[C@H]1CC/C(CNC(=O)/C=C/c1cc(OC)c(OC)c(OC)c1)=C\CC[C@@]1(C)O[C@@H]21 ?
NO

Write down the call the test reported for this compound. Item: CCOC(=O)c1c(C)nc2c(c1N)CC(=O)N2Cc1ccc(OC)cc1
NO

Which result was noted for this compound in the test: N=C1C(c2nc3ccccc3s2)=C(O)CN1c1ccc(F)c(Cl)c1
NO

Name the outcome recorded for CN(CCO)CC[C@H](CSc1ccccc1)Nc1ccc(S(=O)(=O)NC(=O)c2ccc(N3CCC([C@@H](O)c4ccccc4-c4ccc(Cl)cc4)CC3)cc2)cc1S(=O)(=O)C(F)(F)F in the assay.
NO

---

Tested on: SF-268 CNS
Assay: NCI tumour cell line growth inhibition, 48 h
Catalogue of TGI readings, one per entry.

// known answers, use as guide
Fc1ccc(Oc2nc3ccc(C(F)(F)F)cc3nc2-c2ccccc2)cc1 ... > 100 µM
CC(=O)OCC1=C(C(=O)O)N2C(=O)C(NC(=O)CSc3ccncc3)C2SC1 (stereo not drawn) ... > 100 µM

Next, consider the following compound.
Identify measured TGI corresponding to CN(C)c1ccc(/C=C/C(=O)CC(=O)/C=C/c2ccc(N(C)C)cc2)cc1
> 100 µM

Hello, the source for this data is PubChem BioAssay (NCI), in case you need it.
